# Tested system: human Tissue Factor (hTF) (human, UniProt P13726 33-295)
# Procedure text: cell-based or functional assay
Record form. Attribute: IC50, cell viability of MDA-MB-231 cells, Primary ADC, Continuous (FIG. 22D). Fill in for each entry.
# number only, unit pM dropped from output

Recorded result, 25A3-vc-MMAE (antibody, IgG1, V domains shown, MC-vc-PAB-MMAE on cysteines of the partially reduced antibody (chain and positions not stated), DAR 3-4, Antibody-drug conjugate (primary ADC) of the IgG1 antibody; also called 25A3 ADC; 25A3 MMAE ADC) VH: QVQLVQSGAEVKKPGASVKVSCKASGYTFDVYGISWVRQAPGQGLEWMGWIAPYSGNTNYAQKLQGRVTMTTDTSTSTAYMELRSLRSDDTAVYYCARDAGTYSPFGYGMDVWGQGTTVTVSS VL: DIQMTQSPSTLSASVGDRVTITCQASQSINNWLAWYQQKPGKAPKLLIYKAYNLESGVPSRFSGSGSGTEFTLTISSLQPDDFATYYCQLFQSLPPFTFGGGTKVEIK , IC50, cell viability of MDA-MB-231 cells, Primary ADC, Continuous (FIG. 22D): 110

Recorded result, 25A-vc-MMAE (antibody, IgG1, V domains shown, MC-vc-PAB-MMAE on cysteines of the partially reduced antibody (chain and positions not stated), DAR 3-4, Antibody-drug conjugate (primary ADC) of the IgG1 antibody; also called 25A ADC; 25A conjugated to MC-vc-PAB-MMAE) VH: QVQLVQSGAEVKKPGASVKVSCKASGYTFDVYGISWVRQAPGQGLEWMGWIAPYNGNTNYAQKLQGRVTMTTDTSTSTAYMELRSLRSDDTAVYYCARDAGTYSPFGYGMDVWGQGTTVTVSS VL: DIQMTQSPSTLSASVGDRVTITCRASQSISSWLAWYQQKPGKAPKLLIYKASSLESGVPSRFSGSGSGTEFTLTISSLQPDDFATYYCQQFQSLPPFTFGGGTKVEIK , IC50, cell viability of MDA-MB-231 cells, Primary ADC, Continuous (FIG. 22D): 140

Recorded result, 43Ea-vc-MMAE (antibody, IgG1, V domains shown, MC-vc-PAB-MMAE on cysteines of the partially reduced antibody (chain and positions not stated), DAR 3-4) VH: QVQLQESGPGLVKPSQTLSLTCTVSGGSISSGQYWSWIRQHPGKGLEWIGEIYYSGSTRYNPSLKSRVTISVDTSKNQFSLKLSSVTAADTAVYYCARDTPYYYDGGYYYYMDVWGKGTTVTVSS VL: EIVLTQSPGTLSLSPGERATLSCRASQSVSSSYLAWYQQKPGQAPRLLIYGASSRATGIPDRFSGSGSGTDFTLTISRLEPEDFAVYYCQQVGVVPYTFGGGTKVEIK , IC50, cell viability of MDA-MB-231 cells, Primary ADC, Continuous (FIG. 22D): 150

Recorded result, anti-TF antibody 39A conjugated to MC-vc-PAB-MMAE (antibody, IgG1, V domains shown, MC-vc-PAB-MMAE on cysteines of the partially reduced antibody (chain and positions not stated), DAR 3-4, Antibody-drug conjugate (primary ADC) of the IgG1 antibody; also called 39A ADC) VH: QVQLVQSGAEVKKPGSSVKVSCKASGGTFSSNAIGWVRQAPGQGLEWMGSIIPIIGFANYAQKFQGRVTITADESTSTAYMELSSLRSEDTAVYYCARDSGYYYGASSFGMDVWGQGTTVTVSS VL: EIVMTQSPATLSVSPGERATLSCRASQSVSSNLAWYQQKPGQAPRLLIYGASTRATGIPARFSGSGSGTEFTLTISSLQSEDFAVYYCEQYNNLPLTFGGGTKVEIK , IC50, cell viability of MDA-MB-231 cells, Primary ADC, Continuous (FIG. 22D): 50

Recorded result, anti-TF antibody 43B1 conjugated to MC-vc-PAB-MMAE (antibody, IgG1, V domains shown, MC-vc-PAB-MMAE on cysteines of the partially reduced antibody (chain and positions not stated), DAR 3-4) VH: QVQLQESGPGLVKPSQTLSLTCTVSGGSISSGQYWSWIRQHPGKGLEWIGEIYYSGSTRYNPSLKSRVTISVDTSKNQFSLKLSSVTAADTAVYYCARDAPYYYGGGYYYYMDVWGKGTTVTVSS VL: EIVLTQSPGTLSLSPGERATLSCRASESVDSSYLAWYQQKPGQAPRLLIYGASTRQTGIPDRFSGSGSGTDFTLTISRLEPEDFAVYYCQQAGVVPYTFGGGTKVEIK , IC50, cell viability of MDA-MB-231 cells, Primary ADC, Continuous (FIG. 22D): 140

Recorded result, anti-TF antibody 25G1 conjugated to MC-vc-PAB-MMAE (antibody, IgG1, V domains shown, MC-vc-PAB-MMAE on cysteines of the partially reduced antibody (chain and positions not stated), DAR 3-4, Antibody-drug conjugate (primary ADC) of the IgG1 antibody; also called 25G1 ADC) VH: QVQLVQSGAEVKKPGASVKVSCKASGYTFRSYGISWVRQAPGQGLEWMGWVAPYSGNTNYAQKLQGRVTMTTDTSTSTAYMELRSLRSDDTAVYYCARDAGTYSPYGYGMDVWGQGTTVTVSS VL: DIQMTQSPSTLSASVGDRVTITCRASHSIDSWLAWYQQKPGKAPKLLIYKASYLESGVPSRFSGSGSGTEFTLTISSLQPDDFATYYCQLFQSLPPFTFGGGTKVEIK , IC50, cell viability of MDA-MB-231 cells, Primary ADC, Continuous (FIG. 22D): 90

Cited source for all entries: patent US20250361322A1
